experiment: MM1S cell viability effects, profiling panel, calcein-AM fluorescence, 48 h, basal (AID 1165);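 further: viability of MM1S multiple myeloma cells under basal unstimulated conditions; test concentration not given here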
runParameters: higher = more signal
assayMetric: z-score
// return a plain number; no unit text

| compound | assayMetric | val |
| --- | --- | --- |
| CCCNC(=O)[C@@]1(c2ccc([N+](=O)[O-])cc2)CC(=O)N(CC23CC4CC(CC(C4)C2)C3)[C@@H]1c1ccc(CO)cc1 | z-score | -3.54 |
| C=C(CCCC)/C(=C/C[C@H](OC(C)=O)c1ccc(CO)o1)c1cnc2ccccc2c1 | z-score | -2.01 |
| CCN(CC)c1ccc(N2CC=CC34O[C@@H]5C=CCCOC(=O)C5[C@H]3C(=O)N(CCCCCO)[C@@H]4C2=O)cc1 (stereo partly specified) | z-score | 1.39 |
| O=c1cccc(CCc2ccccc2)o1 | z-score | -0.441 |

Short answer for O=C1O[C@@H](c2ccccc2)[C@@H](c2ccccc2)N2[C@@H](c3ccc(OCCO)cc3)[C@]3(C(=O)Nc4ccccc43)[C@@H](C(=O)Nc3nc4ccccc4s3)[C@H]12 : z-score was -0.829

// field: z-score; key: N#Cc1ccc(NN2C(C(O)c3cccs3)C=CC3C(=O)N(c4ccccc4)C(=O)C32)cc1 (stereo unspecified) ; value = -0.0964
